- System: Vero
- test_name: Cytotoxicity against Chlorocebus aethiops (African green monkey) Vero cells by neutral red staining
- Type: cell-based
- measurement_setup: chlorocebus sabaeus
parameter: IC50 (µM)
One number for each entry, in µM.

1. COc1cc(/C=C/C(=O)CC(=O)/C=C/c2ccc(OC(=O)CNc3ccc(S(N)(=O)=O)cc3)c(OC)c2)ccc1OC(=O)CNc1ccc(S(N)(=O)=O)cc1: 11

Exam item: For the compound COc1cc(/C=C/C(=O)CC(=O)/C=C/c2ccc(OC(=O)CCNc3nnc(C)s3)c(OC)c2)ccc1OC(=O)CCNc1nnc(C)s1 , give its measured IC50 value.
Marked response: 15

====

- Test system: BT-549
- test_name: Cytotoxicity against Homo sapiens (human) BT549 cells by neutral red staining
- Assay type: functional, cell-based
parameter: IC50 (µM)
Answers are plain numbers, in µM.

1) CCN(CC)CCNCC(=O)Oc1ccc(/C=C/C(=O)CC(=O)/C=C/c2ccc(OC(=O)CNCCN(CC)CC)c(OC)c2)cc1OC: 16.3
2) COc1cc(/C=C/C(=O)CC(=O)/C=C/c2ccc(OC(=O)CNC34CC5CC(CC(C5)C3)C4)c(OC)c2)ccc1OC(=O)CNC12CC3CC(CC(C3)C1)C2: 19.4
3) CCOc1cc(/C=C/C(=O)CC(=O)/C=C/c2ccc(OC(=O)CNCCCl)c(OCC)c2)ccc1OC(=O)CNCCCl: 9
4) COc1cc(/C=C/C(=O)CC(=O)/C=C/c2ccc(OC(=O)CCNCCCl)c(OC)c2)ccc1OC(=O)CCNCCCl: 11
5) CCOc1cc(/C=C/C(=O)CC(=O)/C=C/c2ccc(OC(=O)CNCCN(C)C)c(OCC)c2)ccc1OC(=O)CNCCN(C)C: 11.5
6) COc1cc(/C=C/C(=O)CC(=O)/C=C/c2ccc(OC(=O)CN(CCCl)CCCl)c(OC)c2)ccc1OC(=O)CN(CCCl)CCCl: 6.75
7) COc1cc(/C=C/C(=O)CC(=O)/C=C/c2ccc(OC(=O)CCNC34CC5CC(CC(C5)C3)C4)c(OC)c2)ccc1OC(=O)CCNC12CC3CC(CC(C3)C1)C2: 20.5
8) CCOc1cc(/C=C/C(=O)CC(=O)/C=C/c2ccc(OC(=O)CNCCN(CC)CC)c(OCC)c2)ccc1OC(=O)CNCCN(CC)CC: 10
9) COc1ccc2nc(NCC(=O)Oc3ccc(/C=C/C(=O)CC(=O)/C=C/c4ccc(OC(=O)CNc5nc6ccc(OC)cc6s5)c(OC)c4)cc3OC)sc2c1: 18.1
10) COc1cc(/C=C/C(=O)CC(=O)/C=C/c2ccc(OC(=O)CCl)c(OC)c2)ccc1OC(=O)CCl [DI-O-CHLOROACETYLCURCUMIN]: 10

# evaluate next
Exam item: Please supply the value of reported IC50 for the item CCOc1cc(/C=C/C(=O)CC(=O)/C=C/c2ccc(OC(=O)CN(CCCl)CCCl)c(OCC)c2)ccc1OC(=O)CN(CCCl)CCCl
Marked response: 11
